study.target: Protein cereblon/ALK tyrosine kinase receptor/Nucleophosmin (Homo sapiens) (UniProt Q9UM73+P06748+Q96SW2)
Sequence (P06748 whole entry partner, the tested form may be a part): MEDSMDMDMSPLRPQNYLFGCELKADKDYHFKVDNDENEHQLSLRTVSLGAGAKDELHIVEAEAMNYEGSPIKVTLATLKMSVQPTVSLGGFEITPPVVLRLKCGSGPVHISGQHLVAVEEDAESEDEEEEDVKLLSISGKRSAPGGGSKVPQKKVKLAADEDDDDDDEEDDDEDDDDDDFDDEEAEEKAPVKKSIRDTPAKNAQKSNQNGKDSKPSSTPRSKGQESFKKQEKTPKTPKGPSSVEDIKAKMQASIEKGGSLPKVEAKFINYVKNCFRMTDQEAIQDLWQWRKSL
Sequence (Q96SW2 whole entry partner, the tested form may be a part): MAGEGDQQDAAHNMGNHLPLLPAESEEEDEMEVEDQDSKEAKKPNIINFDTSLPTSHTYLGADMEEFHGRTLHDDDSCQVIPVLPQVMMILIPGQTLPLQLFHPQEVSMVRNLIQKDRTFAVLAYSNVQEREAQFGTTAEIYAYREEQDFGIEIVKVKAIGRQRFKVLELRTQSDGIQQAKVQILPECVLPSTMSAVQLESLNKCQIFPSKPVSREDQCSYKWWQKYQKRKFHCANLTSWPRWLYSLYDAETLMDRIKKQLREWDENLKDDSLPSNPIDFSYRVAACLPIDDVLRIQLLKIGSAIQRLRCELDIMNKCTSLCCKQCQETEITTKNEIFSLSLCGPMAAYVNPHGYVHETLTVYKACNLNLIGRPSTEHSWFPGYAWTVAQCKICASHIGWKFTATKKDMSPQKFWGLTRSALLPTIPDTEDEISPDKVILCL
Sequence (Q9UM73 19-1620 limits assumed): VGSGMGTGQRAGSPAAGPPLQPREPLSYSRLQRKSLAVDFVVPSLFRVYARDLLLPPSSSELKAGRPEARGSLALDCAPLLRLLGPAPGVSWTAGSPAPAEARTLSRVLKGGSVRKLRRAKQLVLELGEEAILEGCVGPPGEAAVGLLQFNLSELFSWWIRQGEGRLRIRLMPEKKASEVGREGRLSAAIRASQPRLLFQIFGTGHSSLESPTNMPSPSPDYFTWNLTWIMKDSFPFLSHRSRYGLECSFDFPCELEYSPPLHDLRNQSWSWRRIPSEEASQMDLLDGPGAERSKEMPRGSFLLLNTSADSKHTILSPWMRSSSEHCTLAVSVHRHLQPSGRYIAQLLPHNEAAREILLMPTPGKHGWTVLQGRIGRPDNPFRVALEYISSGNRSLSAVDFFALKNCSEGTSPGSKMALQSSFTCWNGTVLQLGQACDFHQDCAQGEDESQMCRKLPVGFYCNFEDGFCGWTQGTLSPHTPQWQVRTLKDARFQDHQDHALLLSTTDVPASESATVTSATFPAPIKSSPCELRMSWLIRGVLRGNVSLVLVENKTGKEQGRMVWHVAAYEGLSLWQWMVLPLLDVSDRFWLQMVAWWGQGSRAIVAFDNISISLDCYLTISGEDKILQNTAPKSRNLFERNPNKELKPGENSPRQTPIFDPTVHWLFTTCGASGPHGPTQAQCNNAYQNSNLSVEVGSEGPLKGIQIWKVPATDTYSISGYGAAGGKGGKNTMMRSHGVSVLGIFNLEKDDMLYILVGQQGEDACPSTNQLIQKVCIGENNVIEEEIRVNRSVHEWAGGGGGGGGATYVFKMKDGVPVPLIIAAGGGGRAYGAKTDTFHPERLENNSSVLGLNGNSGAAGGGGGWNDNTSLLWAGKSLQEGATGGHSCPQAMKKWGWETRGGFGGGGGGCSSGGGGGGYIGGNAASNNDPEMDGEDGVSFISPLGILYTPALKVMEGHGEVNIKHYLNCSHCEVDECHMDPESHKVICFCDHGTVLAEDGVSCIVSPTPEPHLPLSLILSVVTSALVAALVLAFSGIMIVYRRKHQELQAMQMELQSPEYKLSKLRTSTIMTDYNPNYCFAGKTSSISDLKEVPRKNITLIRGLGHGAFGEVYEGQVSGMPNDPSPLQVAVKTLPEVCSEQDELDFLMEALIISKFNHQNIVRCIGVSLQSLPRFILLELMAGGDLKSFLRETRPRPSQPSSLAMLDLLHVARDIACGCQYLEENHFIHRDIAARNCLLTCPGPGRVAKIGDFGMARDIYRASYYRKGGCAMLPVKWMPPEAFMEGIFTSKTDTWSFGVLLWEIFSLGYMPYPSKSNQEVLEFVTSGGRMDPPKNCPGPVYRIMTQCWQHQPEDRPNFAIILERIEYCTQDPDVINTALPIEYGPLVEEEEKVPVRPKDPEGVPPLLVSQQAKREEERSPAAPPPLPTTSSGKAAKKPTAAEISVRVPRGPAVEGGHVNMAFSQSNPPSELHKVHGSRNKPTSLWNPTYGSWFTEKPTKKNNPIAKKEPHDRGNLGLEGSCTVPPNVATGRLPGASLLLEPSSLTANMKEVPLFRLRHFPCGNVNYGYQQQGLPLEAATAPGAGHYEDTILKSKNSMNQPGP
assay.procedure: Protac activity at CRBN/NPM-ALK in human KARPAS-299 cells assessed as induction of NPM-ALK fusion protein degradation at 0.1 uM incubated for 24 hrs by Western blot analysis relative to control
Format: cell-based
test.readout: Activity (%)

CCc1cc2c(cc1N1CCC(N3CCN(C(=O)CNc4cccc5c4C(=O)N(C4CCC(=O)NC4=O)C5=O)CC3)CC1)C(C)(C)c1[nH]c3cc(C#N)ccc3c1C2=O (configuration not stated) :: 72.8

(I) CCc1cc2c(cc1N1CCN(CC(=O)NCCCCNc3cccc4c3C(=O)N(C3CCC(=O)NC3=O)C4=O)CC1)C(C)(C)c1[nH]c3cc(C#N)ccc3c1C2=O (configuration not stated)
(II) CCc1cc2c(cc1N1CCN(C(=O)CNc3cccc4c3C(=O)N(C3CCC(=O)NC3=O)C4=O)CC1)C(C)(C)c1[nH]c3cc(C#N)ccc3c1C2=O (configuration not stated)
Query block: For the two items I and II , which reports the higher Activity value? Refer to your chosen item by its label in the answer.
Result block: I

###

Entries below carry reported pIC50 on ALK tyrosine kinase receptor (Homo sapiens).
pIC50: −log10 of the molar value.
test.readout: pIC50

CCc1cc2c(cc1N1CCC(N3CCNCC3)CC1)C(C)(C)c1[nH]c3cc(C#N)ccc3c1C2=O :: 6.54
CCc1cc2c(cc1N1CCNCC1)C(C)(C)c1[nH]c3cc(C#N)ccc3c1C2=O :: 6.49

###

assay.procedure: AUC (0 to t) in Sprague-Dawley rat at 50 mg/kg, ip administered as single dose measured for 24 hrs by LC-MS/MS analysis
Type: ADME, organism-based
Parameters: dose 50 mg/kg, time 24 hrs, route ip
condition: in vivo
test.readout: AUC(0-t) at 24 h (ng·h/mL)
Just the number in ng·h/mL, nothing appended.

Query block: Field request: AUC(0-t) at 24 h | item: CCc1cc2c(cc1N1CCN(C(=O)CNc3cccc4c3C(=O)N(C3CCC(=O)NC3=O)C4=O)CC1)C(C)(C)c1[nH]c3cc(C#N)ccc3c1C2=O (stereo unspecified)
Result block: 546

###

study.target: Protein cereblon/ALK tyrosine kinase receptor/Echinoderm microtubule-associated protein-like 4 (Homo sapiens) (UniProt Q9UM73+Q9HC35+Q96SW2)
Sequence (Q96SW2 whole entry partner, the tested form may be a part): as the sequence (Q96SW2 whole entry partner, the tested form may be a part) above
Sequence (Q9HC35 whole entry partner, the tested form may be a part): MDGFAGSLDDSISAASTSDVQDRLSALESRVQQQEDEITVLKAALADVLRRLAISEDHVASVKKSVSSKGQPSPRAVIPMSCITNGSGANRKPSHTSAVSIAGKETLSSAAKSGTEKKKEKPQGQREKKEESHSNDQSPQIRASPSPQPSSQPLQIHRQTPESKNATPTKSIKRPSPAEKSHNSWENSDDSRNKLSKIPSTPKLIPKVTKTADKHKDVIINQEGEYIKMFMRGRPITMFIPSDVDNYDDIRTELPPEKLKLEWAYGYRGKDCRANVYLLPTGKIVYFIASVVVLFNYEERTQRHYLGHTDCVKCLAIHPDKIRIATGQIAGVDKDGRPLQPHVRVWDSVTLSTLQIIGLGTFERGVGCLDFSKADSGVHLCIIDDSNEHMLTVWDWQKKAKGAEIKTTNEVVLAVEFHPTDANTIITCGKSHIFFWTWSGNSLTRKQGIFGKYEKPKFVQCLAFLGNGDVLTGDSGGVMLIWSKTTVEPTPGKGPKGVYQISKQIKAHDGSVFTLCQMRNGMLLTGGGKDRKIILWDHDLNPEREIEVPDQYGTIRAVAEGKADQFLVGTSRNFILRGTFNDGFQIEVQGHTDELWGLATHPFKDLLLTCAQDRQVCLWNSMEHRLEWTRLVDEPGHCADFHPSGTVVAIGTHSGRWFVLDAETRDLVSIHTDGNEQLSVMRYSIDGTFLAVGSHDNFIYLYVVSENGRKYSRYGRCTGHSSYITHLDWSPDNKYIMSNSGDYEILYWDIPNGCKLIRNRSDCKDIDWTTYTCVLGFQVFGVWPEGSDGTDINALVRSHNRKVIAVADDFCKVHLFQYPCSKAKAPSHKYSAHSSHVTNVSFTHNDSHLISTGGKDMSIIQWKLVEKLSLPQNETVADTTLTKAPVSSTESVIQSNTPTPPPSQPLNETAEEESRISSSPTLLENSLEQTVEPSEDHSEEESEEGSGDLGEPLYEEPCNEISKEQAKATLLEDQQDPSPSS
Sequence (Q9UM73 19-1620 limits assumed): as the sequence (Q9UM73 19-1620 limits assumed) above
assay.procedure: Protac activity at CRBN/EML4-ALK in human NCI-H3122 cells assessed as induction of EML4-ALK fusion protein degradation at 1 uM incubated for 16 hrs by Western blot analysis relative to control
Format: cell-based
test.readout: Activity (%)

CCc1cc2c(cc1N1CCN(CC(=O)NCCCCNc3cccc4c3C(=O)N(C3CCC(=O)NC3=O)C4=O)CC1)C(C)(C)c1[nH]c3cc(C#N)ccc3c1C2=O (stereo not given) :: 75.7
CCc1cc2c(cc1N1CCC(N3CCN(C(=O)CNc4cccc5c4C(=O)N(C4CCC(=O)NC4=O)C5=O)CC3)CC1)C(C)(C)c1[nH]c3cc(C#N)ccc3c1C2=O (stereo not given) :: 96.9
CCc1cc2c(cc1N1CCC(N3CCN(CC(=O)NCCNc4cccc5c4C(=O)N(C4CCC(=O)NC4=O)C5=O)CC3)CC1)C(C)(C)c1[nH]c3cc(C#N)ccc3c1C2=O (stereo not given) :: 91

(1) CCc1cc2c(cc1N1CCN(C(=O)CNc3cccc4c3C(=O)N(C3CCC(=O)NC3=O)C4=O)CC1)C(C)(C)c1[nH]c3cc(C#N)ccc3c1C2=O (stereo not given)
(2) CCc1cc2c(cc1N1CCC(N3CCN(c4cccc5c4C(=O)N(C4CCC(=O)NC4=O)C5=O)CC3)CC1)C(C)(C)c1[nH]c3cc(C#N)ccc3c1C2=O (stereo not given)
Query block: Which record shows the lower Activity: the first, 1 , or the second, 2 ? Refer to your chosen item by its label in the answer.
Result block: 2
(2: 50.6%, 1: 83.6%)

###

study.target: Protein cereblon/ALK tyrosine kinase receptor/Echinoderm microtubule-associated protein-like 4 (Homo sapiens) (UniProt Q9UM73+Q9HC35+Q96SW2)
assay.procedure: Protac activity at CRBN/EML4-ALK in human NCI-H3122 cells assessed as induction of EML4-ALK fusion protein degradation at 0.1 uM incubated for 16 hrs by Western blot analysis relative to control
Type: cell-based
test.readout: Activity (%)

CCc1cc2c(cc1N1CCN(C(=O)CNc3cccc4c3C(=O)N(C3CCC(=O)NC3=O)C4=O)CC1)C(C)(C)c1[nH]c3cc(C#N)ccc3c1C2=O (centres undefined) :: 50.3
CCc1cc2c(cc1N1CCC(N3CCN(CC(=O)NCCNc4cccc5c4C(=O)N(C4CCC(=O)NC4=O)C5=O)CC3)CC1)C(C)(C)c1[nH]c3cc(C#N)ccc3c1C2=O (centres undefined) :: 47.8
CCc1cc2c(cc1N1CCN(CC(=O)NCCCCCCNc3cccc4c3C(=O)N(C3CCC(=O)NC3=O)C4=O)CC1)C(C)(C)c1[nH]c3cc(C#N)ccc3c1C2=O (centres undefined) :: 51.3
CCc1cc2c(cc1N1CCC(N3CCN(CC(=O)NCCCCCCNc4cccc5c4C(=O)N(C4CCC(=O)NC4=O)C5=O)CC3)CC1)C(C)(C)c1[nH]c3cc(C#N)ccc3c1C2=O (centres undefined) :: 24.5
CCc1cc2c(cc1N1CCN(CC(=O)NCCCCNc3cccc4c3C(=O)N(C3CCC(=O)NC3=O)C4=O)CC1)C(C)(C)c1[nH]c3cc(C#N)ccc3c1C2=O (centres undefined) :: 38.3
CCc1cc2c(cc1N1CCC(N3CCN(C(=O)CNc4cccc5c4C(=O)N(C4CCC(=O)NC4=O)C5=O)CC3)CC1)C(C)(C)c1[nH]c3cc(C#N)ccc3c1C2=O (centres undefined) :: 77.3

(P) CCc1cc2c(cc1N1CCN(CC(=O)NCCNc3cccc4c3C(=O)N(C3CCC(=O)NC3=O)C4=O)CC1)C(C)(C)c1[nH]c3cc(C#N)ccc3c1C2=O (centres undefined)
(Q) CCc1cc2c(cc1N1CCC(N3CCN(CC(=O)NCCCCNc4cccc5c4C(=O)N(C4CCC(=O)NC4=O)C5=O)CC3)CC1)C(C)(C)c1[nH]c3cc(C#N)ccc3c1C2=O (centres undefined)
(R) CCc1cc2c(cc1N1CCN(c3cccc4c3C(=O)N(C3CCC(=O)NC3=O)C4=O)CC1)C(C)(C)c1[nH]c3cc(C#N)ccc3c1C2=O (centres undefined)
Query block: With regard to Activity, arrange the entries in ascending order, please. The response must list the labels following the requested ordering.
Result block: R, Q, P

###

assay.procedure: Observed oral clearance in Sprague-Dawley rat at 50 mg/kg, ip administered as single dose measured for 24 hrs by LC-MS/MS analysis
Assay type: ADME, organism-based
condition: in vivo
test.readout: CL/F (mL/min/kg)
Just the number in mL/min/kg, nothing appended.

Query block: Field request: CL/F | item: CCc1cc2c(cc1N1CCN(C(=O)CNc3cccc4c3C(=O)N(C3CCC(=O)NC3=O)C4=O)CC1)C(C)(C)c1[nH]c3cc(C#N)ccc3c1C2=O (stereo unspecified)
Result block: 743

###

Tested on: BaF3
assay.procedure: Antiproliferative activity against crizotinib-resistant mouse BaF3 cells expressing EML-ALK G1202R mutant assessed as cell viability at 1 uM incubated for 72 hrs by Celltitre-Glo assay relative to control
Assay type: functional
condition: read-out: Activity
test.readout: viability at 1 µM (%)
Just the number in %, nothing appended.

Query block: Field request: viability at 1 µM | item: CCc1cc2c(cc1N1CCC(N3CCNCC3)CC1)C(C)(C)c1[nH]c3cc(C#N)ccc3c1C2=O
Result block: 0.3

Query block: Field request: viability at 1 µM | item: CCc1cc2c(cc1N1CCC(N3CCOCC3)CC1)C(C)(C)c1[nH]c3cc(C#N)ccc3c1C2=O
Result block: 73.3

Query block: Field request: viability at 1 µM | item: CCc1cc2c(cc1N1CCNCC1)C(C)(C)c1[nH]c3cc(C#N)ccc3c1C2=O
Result block: 0.5

Query block: Field request: viability at 1 µM | item: CCc1cc2c(cc1N1CCN(C(=O)CNc3cccc4c3C(=O)N(C3CCC(=O)NC3=O)C4=O)CC1)C(C)(C)c1[nH]c3cc(C#N)ccc3c1C2=O (stereo unspecified)
Result block: 77.6

Query block: Field request: viability at 1 µM | item: CCc1cc2c(cc1N1CCN(CC(=O)NCCCCNc3cccc4c3C(=O)N(C3CCC(=O)NC3=O)C4=O)CC1)C(C)(C)c1[nH]c3cc(C#N)ccc3c1C2=O (stereo unspecified)
Result block: 76.1

Query block: Field request: viability at 1 µM | item: CCc1cc2c(cc1N1CCC(N3CCN(CC(=O)NCCCCNc4cccc5c4C(=O)N(C4CCC(=O)NC4=O)C5=O)CC3)CC1)C(C)(C)c1[nH]c3cc(C#N)ccc3c1C2=O (stereo unspecified)
Result block: 70.9
